Consider the following compounds; for each one, report its Ki.
biological target: bovine trypsin (Bos taurus, UniProt P00760); construct: Purified bovine trypsin; purchased Sigma T8642; assay: In vitro inhibition of purified trypsin, p-nitroanilide substrate hydrolysis; assay type: biochemical; settings: pH 7.5, 37° C.
Sequence (P00760 24-246): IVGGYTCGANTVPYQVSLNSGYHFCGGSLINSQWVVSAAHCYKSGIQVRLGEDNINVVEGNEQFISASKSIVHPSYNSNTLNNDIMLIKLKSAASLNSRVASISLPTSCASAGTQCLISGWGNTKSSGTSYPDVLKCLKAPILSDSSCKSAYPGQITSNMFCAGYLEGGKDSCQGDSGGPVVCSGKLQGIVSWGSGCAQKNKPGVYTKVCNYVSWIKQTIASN
Numbers only, in nM.

Recorded results for 3 compounds are shown here.
>>> print(df.to_string())
                                   compound                            assayed_system  readout_type  unit_annotation  measured_number
0  Cc1cc(OCCCNNC(=N)N)cc(OS(=O)(=O)c2ccccc2Cl)c1 [Example 82, Diacetate]  bovine trypsin (Bos taurus, UniProt P00760)            Ki               nM            36000
1  Cc1cc(OCCCONC(=N)N)cc(OS(=O)(=O)c2ccccc2S(C)(=O)=O)c1.Cl [Example 8, Hydrochloride]  bovine trypsin (Bos taurus, UniProt P00760)            Ki               nM            25000
2  Cc1cc(OCCCONC(=N)N)cc(OS(=O)(=O)c2ccccc2Cl)c1  bovine trypsin (Bos taurus, UniProt P00760)            Ki               nM            37000

# evaluate next
Item: Cc1cc(OCCCONC(=N)N)cc(OS(=O)(=O)c2cccc3cccnc23)c1.Cl [Example 3, Hydrochloride] | System: bovine trypsin (Bos taurus, UniProt P00760) | Ki: 21000
